Test: gradient 5% acetonitrile 3 min, to 50% in 2 min, to 85% in 15 min, held 3 min, 100 µL/min
Settings: column: Zorbax Extend-C18 2.1 x 50 mm; eluents: water / acetonitrile, 0.1% formic acid
reported.endpoint: RP-LC retention time (s)

(A) CC(C)C(=O)Nc1nc(-c2ccc3c(c2)NC(=O)C(C)O3)cs1 (stereo not given)
(B) CCN(C(C)=O)c1nc(-c2ccc(Br)cc2)cs1
[ask] # returns the entry with the larger RP-LC retention time; inputs A and B Response format: the label of the selected entry.
[reply] B

###

Assay: gradient 5% acetonitrile 3 min, to 50% in 2 min, to 85% in 15 min, held 3 min, 100 µL/min
Conditions: column: Zorbax Extend-C18 2.1 x 50 mm; eluents: water / acetonitrile, 0.1% formic acid
reported.endpoint: RP-LC retention time (s)

molecule	RP-LC retention time [s]
CCC(C)NC(=O)c1nn(-c2ccc(OC)cc2)c(OC)cc1=O (centres undefined)	692

(1) CCn1cnc(S(=O)(=O)N2CCC(C(=O)Nc3ccc(C)cc3C)CC2)c1
(2) Cc1ccccc1-n1c(=O)c2sccc2n(Cc2nc(-c3cccc(C(F)(F)F)c3)no2)c1=O
[ask] Look at 1 and 2 . Which one has the lower recorded RP-LC retention time number? Response format: the label of the selected entry.
[reply] 1
(1: 741 s, 2: 1100 s)

###

Test: gradient 5% acetonitrile 3 min, to 50% in 2 min, to 85% in 15 min, held 3 min, 100 µL/min
Details: column: Zorbax Extend-C18 2.1 x 50 mm; eluents: water / acetonitrile, 0.1% formic acid
reported.endpoint: RP-LC retention time (s)

Field: example entries. Status: answers known.
molecule	unit.descriptor	RP-LC retention time
COc1ccc(NC(=O)C2CCN(S(=O)(=O)c3ccc4c(c3)sc(=O)n4C)CC2)c(OC)c1	s	840
Cc1ccc(C)c(N2CCN(c3ccnc(SCC(=O)Nc4ccc(F)cc4F)n3)CC2)c1	s	1000
Cc1ccc(Nc2c(-c3ccc(C)cc3)nc3cccc(C)n23)cc1	s	782
CC1(C)SC2C(NC(=O)COc3ccccc3)C(=O)N2C1C(=O)O (stereo not given)	s	821
COc1ccc(C(C)NC(=O)C2C(=O)NC3(C)CC2c2ccccc2O3)cc1 (stereo not given)	s	747
Cc1ccc(NC(=O)c2ccc(CN3CCN(C)CC3)cc2)cc1Nc1nc(-c2cccnc2)cs1	s	618
COc1ccc(CN2CCC3(CCC3O)CC2)cc1OC (stereo not given)	s	562
O=S(=O)(c1ccccc1)N1CCC(Cc2nncn2-c2ccccc2)C1 (stereo not given)	s	709
Cc1cc2c(cc1S(=O)(=O)N1CCCC1C(=O)Nc1ccc(F)c(Cl)c1)OCC(=O)N2 (stereo not given)	s	965
CCOC(=O)C1=C(CN2CCN(CC)CC2)NC(=O)NC1c1ccc(OC)cc1 (stereo not given)	s	599

(A) C=CCOC(=O)COc1ccc2c(=O)c(-c3ccc(Cl)cc3)coc2c1
(B) O=S(=O)(c1ccccc1F)N1CC(n2cnnc2-c2ccccc2)C1
[ask] Look at A and B . Which one has the lower recorded RP-LC retention time number? Response format: the label of the selected entry.
[reply] B

###

Test: gradient 5% acetonitrile 3 min, to 50% in 2 min, to 85% in 15 min, held 3 min, 100 µL/min
Conditions: column: Zorbax Extend-C18 2.1 x 50 mm; eluents: water / acetonitrile, 0.1% formic acid
reported.endpoint: RP-LC retention time (s)

O=C(NCc1ccccn1)c1cccc2c1CCN2C(=O)c1ccc(F)cc1 644
CCc1nccn1Cc1noc(-c2ccc(Cl)cc2)n1 668
CCCNS(=O)(=O)c1cc(-c2nnc(-c3ccccc3)o2)ccc1F 939
COc1ccc(-c2c(C)noc2NC(C)=O)cc1S(=O)(=O)Nc1cccc(C(F)(F)F)c1 821
Cc1ccc(CNC(=O)c2ccc3nn(CC(=O)NCCC4=CCCCC4)c(=O)n3c2)cc1 857

###

Assay: gradient 5% acetonitrile 3 min, to 50% in 2 min, to 85% in 15 min, held 3 min, 100 µL/min
Details: column: Zorbax Extend-C18 2.1 x 50 mm; eluents: water / acetonitrile, 0.1% formic acid
reported.endpoint: RP-LC retention time (s)

(1) CCC(C)NC(=O)N1CC(n2cc(C(=O)N(C)CCOC)nn2)C1 (stereo not given)
(2) Cc1ccccc1-c1nc(C2CCN(S(=O)(=O)c3ccccc3F)CC2)no1
[ask] # returns the entry with the larger RP-LC retention time; inputs 1 and 2 Response format: the label of the selected entry.
[reply] 2
(2: 1150 s, 1: 620 s)

(P) CCCNC(=O)c1cc2sccc2n1C
(Q) CCN(CC)CCNC(=O)CCc1c(-c2ccc(Cl)cc2)nc2ccccn12
[ask] Look at P and Q . Which one has the lower recorded RP-LC retention time number? Response format: the label of the selected entry.
[reply] Q
(Q: 558 s, P: 816 s)

###

Assay: gradient 5% acetonitrile 3 min, to 50% in 2 min, to 85% in 15 min, held 3 min, 100 µL/min
Settings: column: Zorbax Extend-C18 2.1 x 50 mm; eluents: water / acetonitrile, 0.1% formic acid
reported.endpoint: RP-LC retention time (s)

molecule	RP-LC retention time, s
CN(C)C[C@@H]1CN(c2ncccn2)C[C@H]1NC(=O)c1ccc2ccccc2n1	595
COc1ccc(Cn2c(=O)c3sccc3n(Cc3nc(-c4ccc(C)c(C)c4)no3)c2=O)cc1	1180
CCCc1nc(-c2cc3cccc(C)c3nc2NCCc2ccc(S(N)(=O)=O)cc2)no1	1300

(I) CCc1ccc(S(=O)(=O)NCc2c(-c3ccccc3)nc3sc(CC)nn23)cc1
(II) CS(=O)(=O)NC1(CC2CC2)CCN(Cc2cn[nH]c2-c2ccc(F)cc2)CC1
[ask] # returns the entry with the larger RP-LC retention time; inputs I and II Response format: the label of the selected entry.
[reply] I

(I) CCOc1ccc(-c2nc(Cc3noc(-c4ccncc4)n3)c(C)o2)cc1
(II) CCN1CCN(c2cc(C)c3cc(NC(=O)/C=C/c4ccc(OC(C)C)cc4)ccc3n2)CC1
[ask] Look at I and II . Which one has the lower recorded RP-LC retention time number? Response format: the label of the selected entry.
[reply] II
(II: 646 s, I: 1010 s)

###

Assay: gradient 5% acetonitrile 3 min, to 50% in 2 min, to 85% in 15 min, held 3 min, 100 µL/min
Conditions: column: Zorbax Extend-C18 2.1 x 50 mm; eluents: water / acetonitrile, 0.1% formic acid
reported.endpoint: RP-LC retention time (s)

Field: example entries. Status: answers known.
molecule	unit.descriptor	RP-LC retention time
O=C(Cn1c(=O)n(Cc2cccnc2)c(=O)c2ncccc21)c1ccc2c(c1)OCCO2	s	554
CSc1ccc(NC(=O)CN2C(=O)C3CCCN3C(=O)c3cc(C)ccc32)cc1 (centres undefined)	s	785
O=C(Cn1nc(N2CCOCC2)c2ccccc2c1=O)Nc1ccccc1	s	742

(a) CCOC(=O)Cn1c(=O)c2c(nc3n2CC(C)CN3CCc2ccccc2)n(C)c1=O (centres undefined)
(b) N#Cc1cccc(-c2cn3c(n2)N(C(=O)c2cccnc2)CCC3)c1
[ask] Look at a and b . Which one has the lower recorded RP-LC retention time number? Response format: the label of the selected entry.
[reply] b
(b: 641 s, a: 985 s)

(A) O=C(Nc1ccc(F)cc1)c1nnc(C(=O)N2CCC(C(=O)NCc3ccccn3)CC2)s1
(B) CCCNC(=O)N1CCCC(c2nn[nH]n2)C1 (centres undefined)
[ask] # returns the entry with the larger RP-LC retention time; inputs A and B Response format: the label of the selected entry.
[reply] A
(A: 909 s, B: 590 s)

(I) O=c1ccc(N2CCCN(S(=O)(=O)c3ccc(F)cc3F)CC2)nn1-c1ccc(Cl)cc1
(II) O=C(c1ccc(F)cc1)N1c2nc(-c3ccccc3)nn2C2(CCCCC2)[C@@H]2CCCC[C@@H]21
[ask] # returns the entry with the larger RP-LC retention time; inputs I and II Response format: the label of the selected entry.
[reply] I
(I: 966 s, II: 576 s)

(P) Cc1cccc(-c2noc(Cn3ncn4nc(-c5ccc(F)cc5)cc4c3=O)n2)c1
(Q) O=C(NCc1cccc(F)c1)N1C[C@@H]2C[C@H](NS(=O)(=O)c3cccnc3)[C@H]1C2
[ask] Look at P and Q . Which one has the lower recorded RP-LC retention time number? Response format: the label of the selected entry.
[reply] Q
(Q: 688 s, P: 1150 s)

###

Test: gradient 5% acetonitrile 3 min, to 50% in 2 min, to 85% in 15 min, held 3 min, 100 µL/min
Settings: column: Zorbax Extend-C18 2.1 x 50 mm; eluents: water / acetonitrile, 0.1% formic acid
reported.endpoint: RP-LC retention time (s)

Field: example entries. Status: answers known.
compound	reported.endpoint	unit.descriptor	quantitative.result
Cc1ccc(CCNC(=O)C2CCN(C(=O)c3sccc3-n3cccc3)CC2)cc1	RP-LC retention time	s	882
CCCN(C)CC1(O)CCC2(CCN(Cc3ccc(F)cc3)CC2)CC1	RP-LC retention time	s	547
CCn1c(C)c(CN2CCC(C(=O)N3CCN(c4ccccc4F)CC3)CC2)c2ccccc21	RP-LC retention time	s	729
COc1ccc(-c2nc(C)cc(C)c2CNS(=O)(=O)c2ccc(OC)cc2)cc1	RP-LC retention time	s	643
CC(C)n1cnc2cc(CNC(=O)c3ccc(F)cc3F)ccc21	RP-LC retention time	s	623
Cc1nc(C)c(C(=O)N2CC(n3cc(COc4ccc(F)cc4)nn3)C2)s1	RP-LC retention time	s	729
Cc1ccnc(NC(=O)C2CCN(S(=O)(=O)c3cc(C(=O)N4CCCCCC4)cs3)CC2)c1	RP-LC retention time	s	638
CN1C(=O)c2cccnc2Sc2cc(C(=O)NCc3ccccc3)ccc21	RP-LC retention time	s	746

(I) CCOc1cc(C(=O)Nc2cc(-c3cn4cccnc4n3)ccc2OC)cc(OCC)c1OCC
(II) Cc1ccccc1-c1nc(Cn2ccnc2C)no1
[ask] Look at I and II . Which one has the lower recorded RP-LC retention time number? Response format: the label of the selected entry.
[reply] II
(II: 555 s, I: 831 s)
